experimental.target: Ribosomal protein S6 kinase alpha-3 (Homo sapiens) (UniProt P51812);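 also: reported value is a mean inhibition figure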
Sequence (P51812 whole entry): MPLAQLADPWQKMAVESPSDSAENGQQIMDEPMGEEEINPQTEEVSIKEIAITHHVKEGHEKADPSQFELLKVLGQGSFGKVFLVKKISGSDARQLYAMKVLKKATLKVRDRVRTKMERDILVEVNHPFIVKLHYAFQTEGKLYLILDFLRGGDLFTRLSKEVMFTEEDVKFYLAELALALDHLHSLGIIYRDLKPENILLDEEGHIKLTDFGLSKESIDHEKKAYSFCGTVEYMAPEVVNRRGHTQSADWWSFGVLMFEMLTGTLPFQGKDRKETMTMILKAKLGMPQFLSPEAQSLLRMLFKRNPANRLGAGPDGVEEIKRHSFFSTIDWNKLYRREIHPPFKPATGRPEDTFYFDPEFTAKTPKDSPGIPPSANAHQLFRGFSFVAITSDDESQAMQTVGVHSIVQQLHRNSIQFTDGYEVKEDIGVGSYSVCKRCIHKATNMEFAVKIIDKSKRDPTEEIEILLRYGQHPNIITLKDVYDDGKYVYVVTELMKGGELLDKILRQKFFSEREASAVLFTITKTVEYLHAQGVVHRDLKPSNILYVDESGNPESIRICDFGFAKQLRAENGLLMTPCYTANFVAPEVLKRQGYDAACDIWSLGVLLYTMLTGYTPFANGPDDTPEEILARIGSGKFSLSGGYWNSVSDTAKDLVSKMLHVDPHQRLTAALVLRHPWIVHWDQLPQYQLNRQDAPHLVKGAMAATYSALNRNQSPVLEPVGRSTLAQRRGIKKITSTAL
test.settings: at 0.1 µM

{"structure": "COc1ccc(-c2cc(-c3c[nH]nc3-c3ccccn3)ccn2)cc1", "value.unit": "%", "inhibition": 1.84}
{"structure": "Cc1cccc(Nc2ncc(-c3ccccc3)o2)c1", "value.unit": "%", "inhibition": 0.91}
{"structure": "COc1cc2ncn(-c3cc(OCc4ccccc4C(F)(F)F)c(C(=O)N(C)C)s3)c2cc1OC", "value.unit": "%", "inhibition": -0.53}
{"structure": "Fc1ccc(-c2nn3ncccc3c2-c2ccnc(Nc3ccc4c(c3)OCCO4)n2)cc1", "value.unit": "%", "inhibition": 0.37}
{"structure": "CC(=O)NCc1cccc(C#Cc2cncnc2Nc2ccc(OCc3cccc(F)c3)c(Cl)c2)c1", "value.unit": "%", "inhibition": 0.76}
{"structure": "NS(=O)(=O)c1ccc(N/N=C2\\C(=O)Nc3ccc4ncccc4c32)cc1", "value.unit": "%", "inhibition": 7.41}
{"structure": "Fc1cccc(COc2ccc(Nc3ncnc4sc(-c5ccco5)cc34)cc2Cl)c1", "value.unit": "%", "inhibition": 1.55}
{"structure": "COc1cc2c(cc1Nc1nc(Nc3ccsc3C(N)=O)c3cc[nH]c3n1)N(C(=O)CN(C)C)CCC2(C)C", "value.unit": "%", "inhibition": 17.2}
{"structure": "CCN(CC)S(=O)(=O)c1ccc(OC)c(Nc2ncc(-c3ccccc3)o2)c1", "value.unit": "%", "inhibition": 0.74}
{"structure": "COc1cc(N2CCN(C(C)C)CC2)ccc1Nc1nc(Nc2ccc(F)cc2C(N)=O)c2cc[nH]c2n1", "value.unit": "%", "inhibition": 15}
{"structure": "Nc1nc(-c2cccc(Cl)c2)c(-c2ccc3ncccc3n2)s1", "value.unit": "%", "inhibition": 1.82}
{"structure": "CCNC(=O)O[C@H]1CN[C@H](C#Cc2cc3ncnc(Nc4ccc(OCc5cccc(F)c5)c(Cl)c4)c3s2)C1", "value.unit": "%", "inhibition": -0.04}
{"structure": "CN1CCC(n2cnc(-c3ccc(F)cc3)c2-c2ccnc(N)n2)CC1", "value.unit": "%", "inhibition": -0.12}
{"structure": "COc1cc(Nc2nccc(Nc3ccc4c(C)n[nH]c4c3)n2)cc(OC)c1OC", "value.unit": "%", "inhibition": 1.04}
{"structure": "CNC(=O)c1cccc(C#Cc2cncnc2Nc2ccc(OCc3cccc(F)c3)c(Cl)c2)c1", "value.unit": "%", "inhibition": -0.84}
{"structure": "O=S(=O)(CCNCc1ccc(-c2ccc3ncnc(Nc4ccc(OCc5cccc(F)c5)c(Cl)c4)c3c2)o1)c1ccccc1", "value.unit": "%", "inhibition": 0.92}
{"structure": "NS(=O)(=O)c1ccc(Nc2ncc(-c3ccccc3)o2)cc1", "value.unit": "%", "inhibition": 1.17}
{"structure": "Nc1ncc(-c2cccc(S(N)(=O)=O)c2)c2scc(-c3ccc(F)c(Cl)c3)c12", "value.unit": "%", "inhibition": 2.5}
{"structure": "CCn1c(-c2nonc2N)nc2c(C#CC(C)(C)O)nc(OC[C@H](N)c3ccccc3)cc21", "value.unit": "%", "inhibition": 1.74}
{"structure": "CN(C)CCOc1ccc(-c2nc(-c3ccncc3)c(-c3ccc4c(c3)CC/C4=N\\O)[nH]2)cc1", "value.unit": "%", "inhibition": 1.07}
{"structure": "COc1cccc(-n2ncc3c(N/N=C/c4ccc(F)cc4)ncnc32)c1", "value.unit": "%", "inhibition": 1.27}
{"structure": "O=C(Nc1n[nH]c2cc(-c3ccc(F)cc3)ccc12)C1CC1", "value.unit": "%", "inhibition": 4.78}
{"structure": "Fc1ccc(-c2nn3ccccc3c2-c2ccncc2)cc1", "value.unit": "%", "inhibition": 1.87}
{"structure": "CCCN1CCC(c2ccc(Nc3nc(Nc4cc(F)ccc4C(N)=O)c4cc[nH]c4n3)c(OC)c2)CC1", "value.unit": "%", "inhibition": 26.5}
